Biological target: T1, TNKS2 ARC4 (488–649) (human, UniProt Q9H2K2 488-649)
T1 chain: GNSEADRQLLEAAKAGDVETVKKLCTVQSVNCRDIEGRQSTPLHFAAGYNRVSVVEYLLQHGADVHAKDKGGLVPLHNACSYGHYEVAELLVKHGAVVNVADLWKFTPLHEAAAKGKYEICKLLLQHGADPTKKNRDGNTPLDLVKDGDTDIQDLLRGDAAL
Test: FP
Bridge positions count the residues as written; N and C are the ends. Square brackets hold non-standard residues; d marks the D form. Ends that are not written are not given here. * marks the point of attachment. 5‑TAMRA = CN(C)c1ccc2c(-c3ccc(C(=O)*)cc3C(=O)[O-])c3ccc(N(C)C)cc3[o+]c2c1; n3 = azido unnatural amino acid, 3 CH2 in side chain; Orn(N3) = [N-]=[N+]=NCCC[C@H](N)C(=O)O; Aha = [N-]=[N+]=NCC[C@H](N)C(=O)O; m4 = not defined here; m5 = not defined here; Ahx = NCCCCCC(=O)O
metric: Kd (nM)

INSERT INTO results (binder, meas_value) VALUES
  ('{5‑TAMRA-Ahx}-RE[n3]GDG[n3]E (bridge 3-7; not fully specified (bridges)) [T-cp4n3m5]', 1910),
  ('{5‑TAMRA-Ahx}-RE[Aha]GDG[Aha]E (triazole 3-7 via m4; reading uncertain) [T-cp4n2m4]', 810),
  ('{5‑TAMRA-Ahx}-RE[Aha]GDG[Aha]E (triazole 3-7 via m5; reading uncertain) [T-cp4n2m5]', 1290),
  ('{5‑TAMRA-Ahx}-RE[Orn(N3)]GDG[Orn(N3)]E (bridge 3-7; not fully specified (bridges)) [T-cp4n3m4]', 1110);
